Test system: Nucleic Acid
test_details: Induction of DNA intercalation using 5'-d(GTCCGTCGGAC)-3'/5'-(GTCCGACGGAC)-3' at 250 uM by UV-vis spectrophotometric analysis
Assay type: nucleic-acid assay
Activity calls are given as the source filed them. The calls are words filed in the database; no cut-off is given here.
assay_readout: Activity

INSERT INTO results (test_smiles, assay_readout, endpoint_result) VALUES
  ('CN(C)CCN1C(=O)c2cccc3cc(N)cc(c23)C1=O', 'Activity', 'Active'),
  ('CN(C)CCN1C(=O)c2cccc3cc(O)cc(c23)C1=O', 'Activity', 'Active'),
  ('Cc1cc2c3c(cccc3c1)C(=O)N(CCN(C)C)C2=O', 'Activity', 'Active'),
  ('CC(=O)Nc1cc2c3c(cccc3c1)C(=O)N(CCN(C)C)C2=O', 'Activity', 'Active'),
  ('CN(C)CCN1C(=O)c2cccc3cc(Br)cc(c23)C1=O', 'Activity', 'Active');

###

test_details: Binding affinity to 5'-d(GTCCGCGGAC)2-3' DNA assessed as change in melting temperature at 1:1 DNA to compound molar ratio by spectrophotometric analysis
Listing of entries alongside the reported ΔTm.
assay_readout: ΔTm (°C)

INSERT INTO assay_data (test_smiles, assay_readout, readout_units, endpoint_result) VALUES
  ('CN(C)CCN1C(=O)c2cccc3cc(O)cc(c23)C1=O', 'ΔTm', '°C', 1.6),
  ('CC(=O)Nc1cc2c3c(cccc3c1)C(=O)N(CCN(C)C)C2=O', 'ΔTm', '°C', 5.6),
  ('CN(C)CCN1C(=O)c2cccc3cc([N+](=O)[O-])cc(c23)C1=O', 'ΔTm', '°C', 13.3),
  ('CN(C)CCN1C(=O)c2cccc3cc(I)cc(c23)C1=O', 'ΔTm', '°C', 0),
  ('CN(C)CCN1C(=O)c2cccc3cccc(c23)C1=O', 'ΔTm', '°C', 5.6);
